Recorded IC50 for the following compounds
Target: ITK (Homo sapiens, UniProt Q08881)
Construct: purchased Signalchem I13-11G-10
Sequence (Q08881 whole entry): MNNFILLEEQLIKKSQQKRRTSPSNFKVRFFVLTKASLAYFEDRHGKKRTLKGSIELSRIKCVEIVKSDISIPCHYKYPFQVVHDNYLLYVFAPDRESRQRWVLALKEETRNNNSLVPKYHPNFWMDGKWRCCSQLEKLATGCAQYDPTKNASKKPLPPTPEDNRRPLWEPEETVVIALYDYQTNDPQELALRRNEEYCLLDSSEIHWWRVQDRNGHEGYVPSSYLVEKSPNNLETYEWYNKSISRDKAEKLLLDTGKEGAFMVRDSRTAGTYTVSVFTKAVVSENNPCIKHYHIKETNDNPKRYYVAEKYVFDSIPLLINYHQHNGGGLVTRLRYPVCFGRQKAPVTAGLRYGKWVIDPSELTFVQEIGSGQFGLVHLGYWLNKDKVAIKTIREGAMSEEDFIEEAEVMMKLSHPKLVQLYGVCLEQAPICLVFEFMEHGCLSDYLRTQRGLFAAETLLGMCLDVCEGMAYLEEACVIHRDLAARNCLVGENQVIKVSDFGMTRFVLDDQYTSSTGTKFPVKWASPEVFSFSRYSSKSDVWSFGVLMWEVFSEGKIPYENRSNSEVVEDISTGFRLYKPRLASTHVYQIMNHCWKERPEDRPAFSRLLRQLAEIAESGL
Experiment: Inhibitory activity against ITK, ADP-Glo Kinase system (Promega)
Format: biochemical
Details: 1mM ATP; read-out: ITK IC50(nM) 1mM ATP
Method: Inhibitory activities against BTK and ITK were measured for the compounds prepared in the above Examples as follows. The inhibitory activities against BTK and ITK were evaluated using 'ADP-Glo™ Kinase system' (Promega Corporation). In the case of this evaluation method, activation was measured by quantifying the amount of ADP produced during the kinase reaction, which was utilized to measure the inhibitory activities against BTK and ITK. […]
QUANTITY_MEASURED: IC50

1) C=CC(=O)N1CC=C(c2nc(Nc3ncc(C)s3)cc3c2ccn3CC(C)C)CC1 [Example 6] ... 100 to 500 nM
2) C=CC(=O)N1CCC[C@H]1COc1nc(Nc2ncc(C)s2)cc2c1ccn2C1CCCC1 [Example 222] ... 20 to 100 nM
3) C=CC(=O)N1CCC[C@@H]1COc1nc(Nc2ncc(C)s2)cc2c1ccn2CC(F)(F)F [Example 207] ... ≤ 20 nM
4) C=CC(=O)N1C[C@@H](Oc2nc(Nc3ncc(C)s3)cc3c2ccn3C2CCCC2)C[C@H]1C [Example 100] ... ≤ 20 nM
5) C=CC(=O)N1CC(C)(Oc2nc(Nc3ncc(C)s3)cc3c2ccn3CC2CCCC2)C1 [Example 178] ... ≤ 20 nM
6) C=CC(=O)N1CC(C)(Oc2nc(Nc3ncc(C)s3)cc3c2ccn3C)C1 [Example 166] ... ≤ 20 nM
7) C=CC(=O)N1CC=C(c2nc(Nc3ncc(C)s3)cc3c2ccn3[C@H](C)C(F)(F)F)CC1 [Example 24] ... 20 to 100 nM
8) C=CC(=O)N1CC[C@H](Oc2nc(Nc3cc(C)[nH]n3)cc3c2ccn3C(C)C)C1 [Example 194] ... 20 to 100 nM
9) C=CC(=O)N1C[C@H](F)[C@H](Oc2nc(Nc3cc[nH]n3)cc3c2ccn3CC(C)C)C1 [Example 195] ... 100 to 500 nM
10) C=CC(=O)N1C[C@@H](F)[C@H](Oc2nc(Nc3ncc(C)s3)cc3c2ccn3C[C@@H](C)CC)C1 [Example 175] ... ≤ 20 nM
11) C=CC(=O)N1C[C@@H](F)[C@H](Oc2nc(Nc3ncc(C)s3)cc3c2ccn3CC2CCCC2)C1 [Example 170] ... ≤ 20 nM
12) C=CC(=O)N1C[C@@H](F)[C@H](Oc2nc(Nc3ncc(C)s3)cc3c2ccn3C(C)C)C1 [Example 91] ... ≤ 20 nM
13) C=CS(=O)(=O)N1C[C@H](F)[C@H](Oc2nc(Nc3ncc(C)s3)cc3c2ccn3CC(C)C)C1 [Example 228] ... ≤ 20 nM
14) C=CC(=O)N1C[C@H](F)[C@H](Oc2nc(Nc3cc(F)ccc3C)cc3c2ccn3C)C1 [Example 139] ... > 500 nM
15) C=CC(=O)N1CC=C(c2nc(Nc3cc(C)ncn3)cc3c2ccn3C(C)C)CC1 [Example 44] ... 100 to 500 nM
16) C=CC(=O)N1CCCC12CC(Oc1nc(Nc3ncc(C)s3)cc3c1ccn3CC(C)C)C2 (centres unmarked) [Example 200] ... 100 to 500 nM
17) C=CC(=O)N1C[C@@H](F)[C@H](Oc2nc(Nc3ncc(C)s3)cc3c2ccn3CCC)C1 [Example 161] ... ≤ 20 nM
18) C=CC(=O)N1CC[C@H](Oc2nc(Nc3nccnc3OC)cc3c2ccn3C(C)C)C1 [Example 184] ... > 500 nM
19) C=CC(=O)N1CCC[C@@H](COc2nc(Nc3ncc(C)s3)cc3c2ccn3CC(C)C)C1 [Example 214] ... > 500 nM
20) C=CC(=O)N1CCC[C@H](Oc2nc(Nc3ncc(C)s3)cc3c2ccn3CC2CCCC2)C1 [Example 169] ... 20 to 100 nM
21) C=CC(=O)N1C[C@H](F)[C@H](Oc2nc(Nc3cc(C)[nH]n3)cc3c2ccn3CC(C)C)C1 [Example 196] ... 20 to 100 nM
22) C=CC(=O)N1C[C@H](F)[C@H](Oc2nc(Nc3ncc(C)s3)cc3c2ccn3CC(C)CC)C1 (some centres unmarked) [Example 171] ... ≤ 20 nM
23) C=CC(=O)N1CC[C@H](Oc2nc(Nc3ncc(C)s3)cc3c2ccn3CC2CCCC2)C1 [Example 128] ... ≤ 20 nM
24) C=CC(=O)Nc1cc(-c2nc(Nc3ncc(C)s3)cc3c2ccn3CCC(C)(C)C)c(F)cc1F [Example 69] ... 20 to 100 nM
25) C=CC(=O)N1C[C@H](F)[C@H](Oc2nc(Nc3ncc(C)s3)cc3c2ccn3C(C)C)C1 [Example 83] ... ≤ 20 nM
26) C=CC(=O)N1CC[C@H]1COc1nc(Nc2ncc(C)s2)cc2c1ccn2C(C)C [Example 86] ... 20 to 100 nM
27) C=CC(=O)N1C[C@@H](Oc2nc(Nc3ncc(C)s3)cc3c2ccn3CC)C[C@@H]1C [Example 186] ... ≤ 20 nM
28) C=CC(=O)N1C[C@H](F)[C@H](Oc2nc(Nc3ncc(C)s3)cc3c2ccn3CC(C)C)C1 [Example 105] ... ≤ 20 nM
29) C=CC(=O)N1CC=C(c2nc(Nc3cc(C(F)(F)F)ccn3)cc3c2ccn3C(C)C)CC1 [Example 48] ... 20 to 100 nM
30) C=CC(=O)N1C[C@H](F)[C@H](Oc2nc(Nc3ncc(C)s3)cc3c2ccn3CC(C)(C)O)C1 [Example 141] ... ≤ 20 nM
31) C=CC(=O)N1CC[C@H](COc2nc(Nc3ncc(C)s3)cc3c2ccn3CC(C)C)C1 [Example 216] ... 100 to 500 nM
32) C=CC(=O)N1CC[C@H](Oc2nc(Nc3ncc(C)s3)cc3c2ccn3CC(F)F)C1 [Example 206] ... ≤ 20 nM
